TARGET_OR_SYSTEM: T1, human RXFP1 (human, UniProt Q9HBX9 1-757)
T1 sequence (looked up): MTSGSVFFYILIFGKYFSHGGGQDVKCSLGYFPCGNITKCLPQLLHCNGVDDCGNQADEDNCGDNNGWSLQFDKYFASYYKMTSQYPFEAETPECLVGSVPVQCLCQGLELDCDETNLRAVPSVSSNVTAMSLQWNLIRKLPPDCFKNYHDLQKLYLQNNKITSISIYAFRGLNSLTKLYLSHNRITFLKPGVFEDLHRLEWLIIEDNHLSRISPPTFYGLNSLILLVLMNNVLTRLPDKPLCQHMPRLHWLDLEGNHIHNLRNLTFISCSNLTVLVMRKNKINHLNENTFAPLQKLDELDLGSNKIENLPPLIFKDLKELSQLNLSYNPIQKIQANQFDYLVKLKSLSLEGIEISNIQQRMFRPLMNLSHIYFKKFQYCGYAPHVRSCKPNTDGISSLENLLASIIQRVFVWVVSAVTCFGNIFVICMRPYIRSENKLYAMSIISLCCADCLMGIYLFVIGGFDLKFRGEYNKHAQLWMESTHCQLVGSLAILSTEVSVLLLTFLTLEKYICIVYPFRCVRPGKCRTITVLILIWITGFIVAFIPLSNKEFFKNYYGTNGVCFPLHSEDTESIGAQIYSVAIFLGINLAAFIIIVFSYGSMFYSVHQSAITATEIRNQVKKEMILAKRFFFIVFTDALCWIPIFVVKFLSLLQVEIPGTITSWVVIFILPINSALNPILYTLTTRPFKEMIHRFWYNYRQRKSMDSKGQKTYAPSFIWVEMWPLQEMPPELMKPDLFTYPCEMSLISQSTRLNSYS
PROCEDURE_DETAILS: cell-based or functional assay
A collection of binders and their measured THP1 (endogenous RXFP1) cAMP EC50
// note: answer is a bare numeric in nM

SEQ ID NO: 313 (Fc fusion) DKTHTCPPCPAPEAAGGPSVFLFPPKPKDTLMISRTPEVTCVVVDVSHEDPEVKFNWYVDGVEVHNAKTKPREEQYNSTYRVVSVLTVLHQDWLNGKEYKCKVSNKALAAPIEKTISKAKGQPREPQVYTLPPSRDELTKNQVSLTCLVKGFYPSDIAVEWESNGQPENNYKTTPPVLDSDGSFFLYSKLTVDKSRWQQGNVFSCSVLHEALHSHYTQKSLSLSPGKGGSDSWQEEVIKLCGRELVRAQIAICGKSTGGGEGGGEGGGEGRQLYSALANKCCHVGCTKRSLAQFC	49

Query: Name the recorded THP1 (endogenous RXFP1) cAMP EC50 of the item SEQ ID NO: 87 (Fc fusion) DKTHTCPPCPAPEAAGGPSVFLFPPKPKDTLMISRTPEVTCVVVDVSHEDPEVKFNWYVDGVEVHNAKTKPREEQYNSTYRVVSVLTVLHQDWLNGKEYKCKVSNKALAAPIEKTISKAKGQPREPQVYTLPPSRDELTKNQVSLTCLVKGFYPSDIAVEWESNGQPENNYKTTPPVLDSDGSFFLYSKLTVDKSRWQQGNVFSCSVLHEALHSHYTQKSLSLSPGKGGSDSWQEEVIKLCGRELVRAQIAICGKSTASDAAGAEAEAGARQLYSALANKCCHVGCTKRSLAQFC in your answer.
Result: 25
